Target desc: ERR1 (also known as ERR-α or ERR-1) (Homo sapiens)
Sequence (P11474 193-421 limits assumed): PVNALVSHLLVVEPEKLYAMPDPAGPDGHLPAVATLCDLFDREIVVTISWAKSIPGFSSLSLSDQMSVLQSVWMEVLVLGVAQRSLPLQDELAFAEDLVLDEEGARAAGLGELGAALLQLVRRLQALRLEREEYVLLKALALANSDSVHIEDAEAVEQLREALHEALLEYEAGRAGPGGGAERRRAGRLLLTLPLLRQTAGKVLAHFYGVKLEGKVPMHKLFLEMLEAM
Protocol summary: TR-FRET assay (disruption of co-activator peptide binding to ERR1 LBD)
Test context: 6 nM 6His-ERR1LBD, 6 nM GST-SRC-2 peptide; average of 3 independent experiments
Measured EC50, listed per entry for reference.
Property measured: EC50 (µM)

Compound | Property measured | Limit qualifier | Observed value
CC[C@@H](CN1C(=O)S/C(=C\c2ccc3c(cnn3Cc3ccc(Cl)cc3C(F)(F)F)c2)C1=O)NS(C)(=O)=O [Compound 156] | EC50 | = | 0.027
O=C(O)c1cccc(CN2C(=O)S/C(=C\c3ccc4c(cnn4Cc4ccc(Cl)cc4C(F)(F)F)c3)C2=O)c1 [Compound 378] | EC50 | = | 0.066
O=C1S/C(=C\c2ccc3c(c2)c(Cl)nn3Cc2ccc(Cl)cc2C(F)(F)F)C(=O)N1CCN1CCCC1 [Compound 300] | EC50 | = | 0.007
COc1ccc(Cn2ncc3cc(/C=C4\SC(=O)N(CCN5CCCCC5)C4=O)ccc32)c(C(F)(F)F)c1 [Compound 11] | EC50 | = | 0.027
CC(C)N1CC[C@@H](N2C(=O)S/C(=C\c3ccc4c(cnn4Cc4ccc(Cl)cc4C(F)(F)F)c3)C2=O)[C@H](F)C1 (relative stereo) [Compound 328] | EC50 | = | 0.152
CCN1CCC(N2C(=O)S/C(=C\c3ccc4c(c3)c(OC)nn4Cc3ccc(Cl)cc3C(F)(F)F)C2=O)CC1 [Compound 30] | EC50 | = | 0.096
CCN1CC[C@@H](N2C(=O)S/C(=C\c3ccc4c(cnn4Cc4ccc(C(F)(F)F)cc4C(F)(F)F)c3)C2=O)[C@H](F)C1 (relative stereo) [Compound 336] | EC50 | = | 0.293
CN1CCC(=O)C(N2C(=O)S/C(=C\c3ccc4c(cnn4Cc4ccc(Cl)cc4C(F)(F)F)c3)C2=O)C1 (stereo not drawn) [Compound 344] | EC50 | = | 0.04
Cc1nn(Cc2ccc(Cl)cc2C(F)(F)F)c2ccc(/C=C3\SC(=O)N(CCN4CCCC4)C3=O)cc12 [Compound 41] | EC50 | = | 0.009
CC(=O)NCCN1C(=O)S/C(=C\c2ccc3c(cnn3Cc3ccc(Cl)cc3C(F)(F)F)c2)C1=O [Compound 389] | EC50 | = | 0.026
O=C1S/C(=C\c2ccc3c(c2)nnn3Cc2ccc(Cl)cc2C(F)(F)F)C(=O)N1C[C@H]1COCCN1 [Compound 267] | EC50 | = | 0.011
O=C1S/C(=C\c2ccc3c(cnn3Cc3ccc(C(F)(F)F)cc3C(F)(F)F)c2)C(=O)N1C1CCNCC1 [Compound 67] | EC50 | = | 0.62
CC(=O)N1CCN(CCN2C(=O)S/C(=C\c3ccc4c(cnn4Cc4ccc(Cl)cc4C(F)(F)F)c3)C2=O)CC1 [Compound 117] | EC50 | = | 0.086
COc1ccc(Cn2ncc3cc(/C=C4\SC(=O)N(CCN5CCCC5)C4=O)ccc32)c(C(F)(F)F)c1 [Compound 17] | EC50 | = | 0.046
CN(C)CCN1C(=O)S/C(=C\c2ccc3c(ccn3Cc3ccc(C(F)(F)F)cc3C(F)(F)F)c2)C1=O [Compound 240] | EC50 | = | 0.07
CC1(C)CC(N2C(=O)S/C(=C\c3ccc4c(cnn4Cc4ccc(Cl)cc4C(F)(F)F)c3)C2=O)CC(C)(C)N1 [Compound 175] | EC50 | = | 0.035
CS(=O)(=O)n1ccnc1CN1C(=O)S/C(=C\c2ccc3c(cnn3Cc3ccc(Cl)cc3C(F)(F)F)c2)C1=O [Compound 410] | EC50 | = | 0.025
O=C1S/C(=C\c2ccc3c(cnn3Cc3ccc(Cl)cc3C(F)(F)F)c2)C(=O)N1CCNS(=O)(=O)C(F)(F)F [Compound 55] | EC50 | = | 0.101
COc1ccc(Cn2ncc3cc(/C=C4\SC(=O)N(CCN(C)C)C4=O)ccc32)c(C(F)(F)F)c1 [Compound 9] | EC50 | = | 0.004
O=C1S/C(=C\c2ccc3c(cnn3Cc3ccc(Cl)cc3C(F)(F)F)c2)C(=O)N1C1CCNCC1(F)F (stereo not drawn) [Compound 345] | EC50 | = | 0.018
O=C1S/C(=C\c2ccc3c(cnn3Cc3ccc(Cl)cc3C(F)(F)F)c2)C(=O)N1CC1COS(=O)(=O)N1 (stereo not drawn) [Compound 409] | EC50 | > | 10
COC(=O)CN1C(=O)S/C(=C\c2ccc3c(ccn3Cc3ccc(C(F)(F)F)cc3C(F)(F)F)c2)C1=O [Compound 238] | EC50 | = | 1.8
CS(=O)(=O)NC(=O)CN1C(=O)S/C(=C\c2ccc3c(cnn3Cc3ccc(C(F)(F)F)cc3C(F)(F)F)c2)C1=O [Compound 60] | EC50 | = | 0.057
O=C(NC1(CN2C(=O)S/C(=C\c3ccc4c(cnn4Cc4ccc(C(F)(F)F)cc4C(F)(F)F)c3)C2=O)CCOCC1)C1CC1 [Compound 311] | EC50 | = | 0.133
O=C(O)C(CC1CCNCC1)N1C(=O)S/C(=C\c2ccc3c(cnn3Cc3ccc(Cl)cc3C(F)(F)F)c2)C1=O (stereo not drawn) [Compound 228] | EC50 | = | 0.049
N[C@H]1C[C@H](CN2C(=O)S/C(=C\c3ccc4c(cnn4Cc4ccc(Cl)cc4C(F)(F)F)c3)C2=O)C1 [Compound 100] | EC50 | = | 0.046
O=C1S/C(=C\c2ccc3c(cnn3Cc3ccc(Cl)cc3C(F)(F)F)c2)C(=O)N1C1CN2CCC1CC2 (stereo not drawn) [Compound 112] | EC50 | = | 0.022
